Target sequence: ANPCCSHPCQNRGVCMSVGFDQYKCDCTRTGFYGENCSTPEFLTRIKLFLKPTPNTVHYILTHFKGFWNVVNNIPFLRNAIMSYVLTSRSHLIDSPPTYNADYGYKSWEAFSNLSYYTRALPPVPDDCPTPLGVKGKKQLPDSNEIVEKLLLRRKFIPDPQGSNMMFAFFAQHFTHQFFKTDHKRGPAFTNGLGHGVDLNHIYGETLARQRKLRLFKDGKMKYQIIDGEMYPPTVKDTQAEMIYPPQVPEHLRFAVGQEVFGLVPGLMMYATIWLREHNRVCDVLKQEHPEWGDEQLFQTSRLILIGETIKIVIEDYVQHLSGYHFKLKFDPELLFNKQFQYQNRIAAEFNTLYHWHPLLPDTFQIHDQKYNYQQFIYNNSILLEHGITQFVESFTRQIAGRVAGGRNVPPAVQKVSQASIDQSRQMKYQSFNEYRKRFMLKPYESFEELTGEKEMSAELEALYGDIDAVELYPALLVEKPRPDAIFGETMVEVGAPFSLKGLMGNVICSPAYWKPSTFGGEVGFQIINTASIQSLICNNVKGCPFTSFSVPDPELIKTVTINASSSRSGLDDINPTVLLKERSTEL
Decision: IC50 beneath 80 nM gives True; IC50 meeting or exceeding 80 nM gives False.

The following compounds have reported results that may help.
> print(dat)
                                   compound  class.label
1  O=C(CSc1nnc(-c2ccc(NC(=O)c3cccnc3)cc2)o1)Nc1ccc([N+](=O)[O-])cc1 [Compound 8b]        False
2  Cc1ccc(NC(=O)CSc2nnc(-c3ccc(NC(=O)c4cccnc4)cc3)n2N)cc1 [Compound 11c]         True
3  Cc1ccc(C)c(NC(=O)CSc2nnc(-c3ccc(NC(=O)c4cccnc4)cc3)o2)c1 [Compound 8d]        False
4  O=C(Nc1ccc(-c2n[nH]c(=S)n2N=Cc2c[nH]c3ccccc23)cc1)c1cccnc1 [Compound 10b]        False
5  Nn1c(SCC(=O)Nc2ccc(F)cc2)nnc1-c1ccc(NC(=O)c2cccnc2)cc1 [Compound 11e]         True
6  Cc1ccc(NC(=O)CSc2nnc(-c3ccc(NC(=O)c4cccnc4)cc3)o2)cc1 [Compound 8c]         True
7  Cc1ccc(C=Nn2c(-c3ccc(NC(=O)c4cccnc4)cc3)n[nH]c2=S)cc1 [Compound 10a]        False

Moving on to another compound below.
Input line: Check if IC50 falls below 80 nM for Nn1c(SCC(=O)Nc2cccc(Br)c2)nnc1-c1ccc(NC(=O)c2cccnc2)cc1 [Compound 11f] .
Output line: False

---

Please provide measured IC50 for the entries that follow.
Protein target, amino acids: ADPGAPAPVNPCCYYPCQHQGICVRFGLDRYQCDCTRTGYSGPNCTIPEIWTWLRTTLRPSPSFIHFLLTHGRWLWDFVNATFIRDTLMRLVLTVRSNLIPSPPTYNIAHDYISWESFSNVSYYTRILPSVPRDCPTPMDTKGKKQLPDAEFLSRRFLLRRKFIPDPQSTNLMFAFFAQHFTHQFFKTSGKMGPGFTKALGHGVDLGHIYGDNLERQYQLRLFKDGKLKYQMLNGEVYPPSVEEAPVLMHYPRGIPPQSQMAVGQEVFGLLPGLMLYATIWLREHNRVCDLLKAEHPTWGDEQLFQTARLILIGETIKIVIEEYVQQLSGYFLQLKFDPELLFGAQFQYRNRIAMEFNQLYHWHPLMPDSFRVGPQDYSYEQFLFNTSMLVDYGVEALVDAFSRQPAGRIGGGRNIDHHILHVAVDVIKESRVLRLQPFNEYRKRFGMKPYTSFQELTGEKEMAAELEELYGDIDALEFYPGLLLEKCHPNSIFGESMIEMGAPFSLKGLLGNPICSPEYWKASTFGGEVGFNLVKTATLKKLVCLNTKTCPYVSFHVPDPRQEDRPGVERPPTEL

Check out these entries, answers already filled in.
> print(dat)
                                    compound   result
 1  Cc1ccc(C)c(NC(=O)CSc2nnc(-c3ccc(NC(=O)c4cccnc4)cc3)n2N)c1 [Compound 11d]  10.5 µM
 2  O=C(CSc1nnc(-c2ccc(NC(=O)c3cccnc3)cc2)o1)Nc1ccc([N+](=O)[O-])cc1   8.5 µM
 3  Cc1ccc(NC(=O)CSc2nnc(-c3ccc(NC(=O)c4cccnc4)cc3)o2)cc1  11.5 µM
 4  O=C(Nc1ccc(-c2n[nH]c(=S)n2N=Cc2c[nH]c3ccccc23)cc1)c1cccnc1 [Compound 10b]     8 µM
 5  O=C(CSc1nnc(-c2ccc(NC(=O)c3cccnc3)cc2)o1)Nc1ccccc1Cl   8.5 µM
 6  O=C(CSc1nnc(-c2ccc(NC(=O)c3cccnc3)cc2)o1)Nc1ccc(F)cc1   7.5 µM
 7  Nn1c(SCC(=O)Nc2ccccc2Cl)nnc1-c1ccc(NC(=O)c2cccnc2)cc1 [Compound 11g]  10.5 µM
 8  Nn1c(SCC(=O)Nc2cccc(Br)c2)nnc1-c1ccc(NC(=O)c2cccnc2)cc1 [Compound 11f]   9.5 µM
 9  Cc1ccc(C)c(NC(=O)CSc2nnc(-c3ccc(NC(=O)c4cccnc4)cc3)o2)c1  10.5 µM
10  CC(=O)c1ccc(NC(=O)CSc2nnc(-c3ccc(NC(=O)c4cccnc4)cc3)n2N)cc1 [Compound 11a]   8.5 µM

Hi team, please reply with IC50 for each item in this list.
1. Nn1c(SCC(=O)Nc2ccc([N+](=O)[O-])cc2)nnc1-c1ccc(NC(=O)c2cccnc2)cc1 [Compound 11b]
2. Cc1ccc(C=Nn2c(-c3ccc(NC(=O)c4cccnc4)cc3)n[nH]c2=S)cc1 [Compound 10a]

Output line:
["11.5 µM", "11.5 µM"]

Every entry's value here was drawn from paper PMC10965220.
